target: PDE4B (human recombinant) (Homo sapiens, UniProt Q07343); construct: made in house; test: PDE4B inhibition, radioactive SPA and/or IMAP fluorescence polarisation (FP) assay; format: biochemical; conditions: one reading or average of several (ca. 2-6) readings; SPA and/or FP assay; range given for a group of Examples; read-out: PDE4B pIC50 (±about 0.5) (converted)
Sequence (Q07343 1-564 isoform Q07343-2): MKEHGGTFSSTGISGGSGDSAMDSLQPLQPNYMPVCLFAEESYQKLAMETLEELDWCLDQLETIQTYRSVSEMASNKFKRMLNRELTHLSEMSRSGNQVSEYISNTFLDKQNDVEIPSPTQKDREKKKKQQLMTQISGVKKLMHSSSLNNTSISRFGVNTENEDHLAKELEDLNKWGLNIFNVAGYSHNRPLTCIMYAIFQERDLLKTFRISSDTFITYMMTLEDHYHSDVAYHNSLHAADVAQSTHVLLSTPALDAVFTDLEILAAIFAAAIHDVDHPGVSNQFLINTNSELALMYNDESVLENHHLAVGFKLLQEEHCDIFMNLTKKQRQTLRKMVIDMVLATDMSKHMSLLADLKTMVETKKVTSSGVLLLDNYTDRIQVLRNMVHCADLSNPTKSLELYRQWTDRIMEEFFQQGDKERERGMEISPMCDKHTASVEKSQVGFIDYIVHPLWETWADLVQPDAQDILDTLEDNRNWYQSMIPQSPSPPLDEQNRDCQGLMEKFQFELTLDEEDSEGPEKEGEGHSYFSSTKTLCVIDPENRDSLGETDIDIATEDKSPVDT
assay_endpoint: IC50

                                   compound            result
0  CCn1ncc2c(NC3CCOCC3)c(C(=O)N[C@H](C)c3ccc(OC)cc3)cnc21  0.794 to 5.01 nM

Respond only with IC50 recorded for CC[C@@H](NC(=O)c1cnc2c(cnn2CC)c1NC1CCC(C(N)=O)CC1)c1ccccc1 (mixture of isomers)
0.501 to 3.16 nM

* * *

molecular target: PDE4B (human recombinant) (Homo sapiens); construct: made in house; assay: PDE4B inhibition, radioactive SPA and/or IMAP fluorescence polarisation (FP) assay; format: biochemical; conditions: one reading or average of several (ca. 2-6) readings; SPA and/or FP assay; range given for a group of Examples; read-out: PDE4B pIC50 (±about 0.5) (converted)
assay_endpoint: IC50

Use the examples below as a reference point.
>>> df
                                   compound            result
0  CCn1ncc2c(NC3CCOCC3)c(C(=O)N[C@H](CO)c3ccccc3)cnc21 [Example 28]  0.794 to 5.01 nM
1  CCn1ncc2c(N[C@H]3CC[C@@H](C(N)=O)CC3)c(C(=O)N[C@H](C)c3ccc(Br)cc3)cnc21 [Example 355]  0.501 to 3.16 nM

Output measured IC50 for this item: CCn1ncc2c(NC3CCOCC3)c(C(=O)N[C@H](C)c3ccc(C)cc3)cnc21 [Example 73]
0.1 to 2 nM

Name the recorded IC50 of the item CCC(NC(=O)c1cnc2c(cnn2CC)c1NC1CCC(=NO)CC1)c1ccc(C)cc1 (stereo not drawn) [Example 252] in your answer.
0.1 to 2 nM

Supply measured IC50 of CCC(NC(=O)c1cnc2c(cnn2CC)c1NC1CCOCC1)c1ccc(C)cc1C (stereo not drawn) [Example 98] in your reply.
0.1 to 2 nM

Return IC50 for the following compound: CC[C@@H](NC(=O)c1cnc2c(cnn2CC)c1N[C@H]1CC[C@@H](C(N)=O)CC1)c1ccc(C)cc1C [Example 352]
0.501 to 3.16 nM

Tell me its IC50 given CCn1ncc2c(NC3CCOCC3)c(C(=O)NC(C)(C)c3ccccc3)cnc21 [Example 2] as the entry.
12.6 to 25.1 nM

Indicate the recorded IC50 value for this compound: CCC(NC(=O)c1cnc2c(cnn2CC)c1NC1CCC(=O)CC1)c1ccc(C)cc1 (stereo not drawn) [Example 221]
0.1 to 2 nM

* * *

// values below are reported IC50
Biological target: PDE4B (human recombinant) (Homo sapiens)
Construct: made in house
Experiment: PDE4B inhibition, radioactive SPA and/or IMAP fluorescence polarisation (FP) assay
Format: biochemical
Details: one reading or average of several (ca. 2-6) readings; SPA and/or FP assay; range given for a group of Examples; read-out: PDE4B pIC50 (±about 0.5) (converted)
Description: Human recombinant PDE4B, in particular the 2B splice variant thereof (HSPDE4B2B), is disclosed in WO 94/20079 and also M. M. McLaughlin et al., “A low Km, rolipram-sensitive, cAMP-specific phosphodiesterase from human brain: cloning and expression of cDNA, biochemical characterisation of recombinant protein, and tissue distribution of mRNA”, J. Biol. Chem., 1993, 268, 6470-6476. […]

Example cases with answers are listed next.
                                   compound  assay_endpoint            result
0  CCn1ncc2c(NC3CCC(C(N)=O)CC3)c(C(=O)NC(C)c3ccc(Cl)cc3)cnc21 (mixture of isomers)            IC50  0.501 to 3.16 nM
1  CCn1ncc2c(NC3CCOCC3)c(C(=O)NC(C)c3ccc(C)cc3)cnc21 (stereo not shown)            IC50       0.1 to 2 nM
2  CCn1ncc2c(NC3CCOCC3)c(C(=O)N[C@@H](C(N)=O)c3ccccc3)cnc21            IC50   31.6 to 70.8 nM
3  CCn1ncc2c(NC3CCOCC3)c(C(=O)N[C@H](C)c3ccccc3)cnc21            IC50  0.794 to 5.01 nM
4  CCn1ncc2c(NC3CCCC(O)C3)c(C(=O)N[C@H](C)c3ccc(C)cc3)cnc21 (single isomer, unassigned; diastereoisomer 2)            IC50       0.1 to 2 nM

Look up and report IC50, with PDE4B (human recombinant) (Homo sapiens) as system, for CCn1ncc2c(NC3CCOCC3)c(C(=O)N[C@H](C)c3cccc4ccccc34)cnc21
12.6 to 25.1 nM

Under PDE4B (human recombinant) (Homo sapiens): report IC50 of CCn1ncc2c(N[C@H]3CC[C@@H](C(N)=O)CC3)c(C(=O)N[C@H](C)c3ccc(C)cc3)cnc21 .
0.501 to 3.16 nM

Provide IC50, recorded with PDE4B (human recombinant) (Homo sapiens), of CCn1ncc2c(NC3CCOCC3)c(C(=O)N[C@@H](C)c3cccc4ccccc34)cnc21
12.6 to 25.1 nM

Write IC50 of CCC(NC(=O)c1cnc2c(cnn2CC)c1NC1CCOCC1)c1ccc(C)cc1C (single isomer, unassigned; enantiomer 2) [Example 304] ; system used: PDE4B (human recombinant) (Homo sapiens)
0.1 to 2 nM

# return IC50 of CCn1ncc2c(NC3CCOCC3)c(C(=O)NC(C)c3ccc(Br)cc3)cnc21 (stereo not shown) (system: PDE4B (human recombinant) (Homo sapiens))
0.794 to 5.01 nM

Provide IC50, tested on PDE4B (human recombinant) (Homo sapiens), for CCn1ncc2c(NC3CCOCC3)c(C(=O)N[C@@H](CO)c3ccccc3)cnc21 .
31.6 to 70.8 nM

# assay system PDE4B (human recombinant) (Homo sapiens): give IC50 of CCn1ncc2c(NC3CCC(=O)CC3)c(C(=O)N[C@H](C)c3ccc(C)cc3)cnc21
0.1 to 2 nM

Enter recorded IC50 with PDE4B (human recombinant) (Homo sapiens) for CCn1ncc2c(NC3CCC(C(N)=O)CC3)c(C(=O)N[C@H](C)c3ccc(Br)cc3)cnc21 (mixture of isomers) here.
0.501 to 3.16 nM

Provide PDE4B (human recombinant) (Homo sapiens) IC50 reading for CCn1ncc2c(N[C@H]3CC[C@H](C(N)=O)CC3)c(C(=O)N[C@H](C)c3ccc(C)cc3)cnc21 .
39.8 to 158 nM
